System: P. aeruginosa 2297 (AmpC wt)
assay: MIC determination, broth microdilution (CLSI)
Format: cell-based
experimental.parameters: Pseudomonas aeruginosa, strain 7
property.name: MIC (µg/mL)
Answer format: numeric, µg/mL implied, no suffix.

Worked set:
{"compound": "C[C@H]1[C@H](NC(=O)/C(=N\\OCCOc2ccc(C(=N)N)nn2)c2csc(N)n2)C(=O)N1S(=O)(=O)O", "MIC / µg/mL": 8}
{"compound": "CC1(C)[C@H](NC(=O)/C(=N\\OC(COc2ccc(C(=N)N)cc2)CC(=O)O)c2csc(N)n2)C(=O)N1OS(=O)(=O)O (mixture of isomers)", "MIC / µg/mL": 32}
{"compound": "C[C@H]1[C@H](NC(=O)/C(=N\\OCCOc2cc(C(=N)N)nn2C)c2csc(N)n2)C(=O)N1S(=O)(=O)O", "MIC / µg/mL": 32}
{"compound": "C[C@H]1[C@H](NC(=O)/C(=N\\OCCOCc2cc(C(=N)N)cs2)c2csc(N)n2)C(=O)N1S(=O)(=O)O", "MIC / µg/mL": 32}
{"compound": "CC1(C)[C@H](NC(=O)/C(=N\\OCCOc2ccnc(C(=N)N)c2)c2csc(N)n2)C(=O)N1OS(=O)(=O)O", "MIC / µg/mL": 8}

Turning now to a further record.
The value of MIC recorded for `C[C@H]1[C@H](NC(=O)/C(=N\OCCOc2ccc(C(=N)NNC=O)cc2)c2csc(N)n2)C(=O)N1S(=O)(=O)O` when tested on P. aeruginosa 2297 (AmpC wt) reads 8
